Target: serotonin transporter (Rattus norvegicus)
Sequence (P31652 whole entry): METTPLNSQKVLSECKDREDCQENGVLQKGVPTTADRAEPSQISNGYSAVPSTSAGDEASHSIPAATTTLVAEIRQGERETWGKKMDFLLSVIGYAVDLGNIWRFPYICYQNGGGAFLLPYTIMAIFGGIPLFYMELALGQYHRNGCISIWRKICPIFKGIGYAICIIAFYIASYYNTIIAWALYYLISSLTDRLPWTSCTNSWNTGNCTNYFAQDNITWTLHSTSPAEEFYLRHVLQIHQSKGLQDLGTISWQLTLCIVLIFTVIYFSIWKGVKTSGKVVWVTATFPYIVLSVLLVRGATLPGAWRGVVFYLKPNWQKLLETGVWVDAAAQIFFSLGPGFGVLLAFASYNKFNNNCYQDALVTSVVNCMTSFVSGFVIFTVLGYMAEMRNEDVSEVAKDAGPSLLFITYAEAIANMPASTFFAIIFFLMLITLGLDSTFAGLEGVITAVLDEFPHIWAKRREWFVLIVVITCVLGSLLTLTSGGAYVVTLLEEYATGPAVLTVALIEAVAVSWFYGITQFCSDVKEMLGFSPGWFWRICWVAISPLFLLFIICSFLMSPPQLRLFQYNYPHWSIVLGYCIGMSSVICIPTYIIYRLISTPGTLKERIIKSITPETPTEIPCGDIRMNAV
reported.endpoint: Ki (nM)
Lab book: enter the figure in nM, no units written.

Fill in Ki for record COc1ccccc1OCCNC[C@H]1CC[C@H](c2c[nH]c3ccc(F)cc32)CC1 [Example 10a] 7.33

* * *

Biological target: human 5-HT1A receptor (Homo sapiens, UniProt P08908)
Construct: expressed in transfected cells
Sequence (P08908 whole entry): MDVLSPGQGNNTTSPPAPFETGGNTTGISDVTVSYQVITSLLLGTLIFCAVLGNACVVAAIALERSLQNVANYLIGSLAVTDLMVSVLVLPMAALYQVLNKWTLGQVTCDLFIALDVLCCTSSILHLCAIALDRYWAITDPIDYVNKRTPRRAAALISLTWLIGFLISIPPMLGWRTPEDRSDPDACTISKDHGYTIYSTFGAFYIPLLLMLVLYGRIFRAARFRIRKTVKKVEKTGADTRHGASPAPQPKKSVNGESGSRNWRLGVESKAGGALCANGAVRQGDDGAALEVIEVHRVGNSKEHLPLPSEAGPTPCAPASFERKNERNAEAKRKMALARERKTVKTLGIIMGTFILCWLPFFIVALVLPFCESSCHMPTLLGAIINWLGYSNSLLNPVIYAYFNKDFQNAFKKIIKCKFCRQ
Assay: 5-HT1A receptor binding ([3H]8-OH-DPAT, 5-HT1A.CHO cell membranes)
reported.endpoint: pKi
Please express pKi as -log10 of the molar concentration.

Please look at this molecule and report its pKi: COc1ccccc1OCCNC[C@H]1CC[C@H](c2c[nH]c3ccc(F)cc32)CC1 [Example 10a] 7.57

* * *

Assignment: determine reported inhibition at 0.01 µM for the given compounds.
Target: human 5-HT1A receptor (Homo sapiens)
Construct: expressed in transfected cells
Experiment: 5-HT1A receptor binding ([3H]8-OH-DPAT, 5-HT1A.CHO cell membranes)
Settings: 0.5 h; read-out: 5-HT1A % @10 nM

Please report the measured inhibition at 0.01 µM for COc1cc(S(C)(=O)=O)c(F)cc1OCCN[C@H]1CC[C@H](c2c[nH]c3ccc(F)cc32)CC1 0%

Specify reported inhibition at 0.01 µM for the compound shown: COc1cc(F)ccc1OCCN[C@H]1CC[C@@H](c2c[nH]c3ccc(F)cc32)CC1 16%

Entry COc1ccccc1OCCNCC1CCC(c2c[nH]c3ccc(C#N)cc23)CC1 (stereo not shown) [Example 10b] needs its inhibition at 0.01 µM filled in; supply it. 7%

Identify the reported inhibition at 0.01 µM for the following entry. COc1cc(F)c(F)cc1OCCN[C@H]1CC[C@@H](c2c[nH]c3ccc(F)cc32)CC1 [Example 11a] 0%

* * *

Molecular target: human 5-HT1A receptor (Homo sapiens)
Construct: expressed in transfected cells
Experiment: 5-HT1A receptor binding ([3H]8-OH-DPAT, 5-HT1A.CHO cell membranes)
Conditions: [3H]8-OH-DPAT 1.5 nM, 30 minutes, room temperature; read-out: 5-HT1A (Ki)
reported.endpoint: Ki (nM)
Reply numerically in nM, unit not repeated.

Report Ki under test system human 5-HT1A receptor (Homo sapiens) for OC1(CNCCOc2cccc3[nH]ccc23)CCC(c2c[nH]c3ccc(F)cc23)CC1 (stereo not shown) [Example 13] . 257
